Give measured Fold Enhancement for each item. Keep answers brief.
Target: T1, Gal80 (UniProt P04387 1-435, limits assumed)
T1 construct: Cy3/Cy5 or otherwise fluorescently labelled on arrays; immobilised in SPR and ELISA
T1 sequence (looked up): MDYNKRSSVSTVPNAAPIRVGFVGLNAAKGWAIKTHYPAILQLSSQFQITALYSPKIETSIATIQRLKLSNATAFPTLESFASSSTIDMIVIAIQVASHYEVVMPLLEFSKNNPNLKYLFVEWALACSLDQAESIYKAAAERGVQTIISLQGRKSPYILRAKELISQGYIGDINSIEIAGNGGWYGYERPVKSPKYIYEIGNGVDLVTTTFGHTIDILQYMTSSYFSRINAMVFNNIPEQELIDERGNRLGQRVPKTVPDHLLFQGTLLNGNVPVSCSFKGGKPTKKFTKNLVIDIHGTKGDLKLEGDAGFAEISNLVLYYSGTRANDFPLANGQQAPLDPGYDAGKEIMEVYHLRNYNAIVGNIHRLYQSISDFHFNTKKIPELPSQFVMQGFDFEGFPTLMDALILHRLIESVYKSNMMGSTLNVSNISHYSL
Assay: light-directed peptide array, 25 pM labelled GAL80 with 1 mg/mL E. coli lysate; against template BP2
Numbers only, in fold.

| binder | readout-unit | recorded-number |
| --- | --- | --- |
| EGEWTEGKKSKLGSC [BP2 variant EGEWTEGKKSKLGSC] | fold | 10.7 |

Quick one: give me Fold Enhancement for each item below, same order please.
1. EGEITEGKKSKEGSC [BP2 variant EGEITEGKKSKEGSC]
2. EGEKTEGKKSKEGSC [BP2 variant EGEKTEGKKSKEGSC]

1: 10.9; 2: 9.7

Quick one: give me Fold Enhancement for each item below, same order please.
1. EGEDTEGKKSKEGSC [BP2 variant EGEDTEGKKSKEGSC]
2. EGEDTEGKKSKRGSC [BP2 variant EGEDTEGKKSKRGSC]
3. EGEDTEGKKSKTGSC [BP2 variant EGEDTEGKKSKTGSC]
4. EGEWTEGKKSKTGSC [BP2 variant EGEWTEGKKSKTGSC]
5. EGEITEGKKSKSGSC [BP2 variant EGEITEGKKSKSGSC]

[10.1, 10.4, 10.2, 10.5, 9.91]

Quick one: give me Fold Enhancement for each item below, same order please.
1. EGEWTEGKKSKRGSC [BP2 variant EGEWTEGKKSKRGSC]
2. EGEITEGKKSKGGSC [BP2 variant EGEITEGKKSKGGSC]

[11, 10.8]

Quick one: give me Fold Enhancement for each item below, same order please.
1. EGEDTEGKKSKGGSC [BP2 variant EGEDTEGKKSKGGSC]
2. EGEITEGKKSKTGSC [BP2 variant EGEITEGKKSKTGSC]
3. EGEWTEGKKSKEGSC [BP2 variant EGEWTEGKKSKEGSC]

1: 10.8; 2: 10.6; 3: 10.7

Quick one: give me Fold Enhancement for each item below, same order please.
1. EGEITEGKLSKKGSC [BP2 variant EGEITEGKLSKKGSC]
2. EGEITEGKGSKKGSC [BP2 variant EGEITEGKGSKKGSC]

[9.72, 9.87]

These entries and their values trace back to patent US20120065123A1.
